Entry source: patent US20250289893A1

target: Chinese variant CD1a protein (human) (UniProt P06126); test: ELISA, 10 µg/ml antibody
Sequence (P06126 18-295, change not shown): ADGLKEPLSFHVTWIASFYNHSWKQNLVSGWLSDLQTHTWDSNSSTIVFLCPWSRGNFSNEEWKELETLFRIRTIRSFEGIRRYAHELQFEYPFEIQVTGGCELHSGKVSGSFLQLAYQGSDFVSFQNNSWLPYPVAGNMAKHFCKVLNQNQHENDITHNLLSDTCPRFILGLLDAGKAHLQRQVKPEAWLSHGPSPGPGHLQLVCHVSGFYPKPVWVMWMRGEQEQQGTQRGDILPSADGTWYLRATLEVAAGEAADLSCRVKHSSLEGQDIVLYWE
endpoint label: Optical Density (OD)

>>> value_reported("111 (VR12113) (antibody, V domains shown, also called OX111) VH: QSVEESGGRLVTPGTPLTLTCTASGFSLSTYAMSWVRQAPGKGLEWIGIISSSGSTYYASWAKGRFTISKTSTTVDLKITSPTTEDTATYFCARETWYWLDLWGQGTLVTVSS VL: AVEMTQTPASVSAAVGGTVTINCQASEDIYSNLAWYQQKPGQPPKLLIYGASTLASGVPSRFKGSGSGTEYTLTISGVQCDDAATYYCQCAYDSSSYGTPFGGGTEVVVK")
1.41
>>> value_reported("110 (VR12112) (antibody, V domains shown, also called OX110; antibody 110) VH: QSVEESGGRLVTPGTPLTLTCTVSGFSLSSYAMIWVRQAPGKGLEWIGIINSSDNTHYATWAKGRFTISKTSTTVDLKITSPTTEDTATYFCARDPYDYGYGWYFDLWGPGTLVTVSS VL: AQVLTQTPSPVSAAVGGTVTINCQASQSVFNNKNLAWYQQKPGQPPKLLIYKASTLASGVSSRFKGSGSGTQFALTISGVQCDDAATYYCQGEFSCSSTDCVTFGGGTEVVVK")
1.75
>>> value_reported("116 (VR12117) (antibody, V domains shown, also called OX116) VH: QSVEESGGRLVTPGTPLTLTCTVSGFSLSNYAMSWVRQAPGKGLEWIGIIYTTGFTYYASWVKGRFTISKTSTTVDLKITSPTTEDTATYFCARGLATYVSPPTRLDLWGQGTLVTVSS VL: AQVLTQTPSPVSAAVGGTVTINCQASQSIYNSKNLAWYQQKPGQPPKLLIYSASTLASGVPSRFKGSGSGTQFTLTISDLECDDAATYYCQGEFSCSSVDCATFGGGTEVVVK")
1.51
>>> value_reported("77A (VR11851) (antibody, V domains shown, also called OX77a; antibody 77a) VH: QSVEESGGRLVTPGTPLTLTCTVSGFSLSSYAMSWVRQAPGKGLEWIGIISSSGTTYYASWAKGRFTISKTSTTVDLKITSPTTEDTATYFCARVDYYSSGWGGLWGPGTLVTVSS VL: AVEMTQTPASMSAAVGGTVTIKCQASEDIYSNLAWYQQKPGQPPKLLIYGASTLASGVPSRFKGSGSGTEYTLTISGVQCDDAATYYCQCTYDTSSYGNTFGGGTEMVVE")
0.99
